# Tested on: OVCAR-5
# assay-comment: NCI tumour cell line growth inhibition, 48 h
The source made the active and inactive calls. Cut-off read from the data, not from the text of the source: active = GI50 up to about 1.1 µM and inactive = higher.
measurement-type: GI50

compound | result
Oc1ccc(Cc2nccc3cc(O)c(O)cc23)cc1O | 48.9 µM (inactive)
COc1ccc(/C=C2\CCC(Cc3ccccc3)(CN(C)C)C2=O)cc1 (stereo unspecified) | > 96.2 µM (inactive)
O=C(Oc1ccc2c(c1)CN(Cc1ccccc1)CO2)c1ccccc1 | 18.3 µM (inactive)
O=C1CSC(c2ccccc2[N+](=O)[O-])N1c1ccc(-c2ccc(-n3c(-c4ccccc4)nc4ccccc4c3=O)cc2)cc1 (stereo unspecified) | 71.3 µM (inactive)
Cn1ccnc1CCc1ccc(Cl)cc1Cl | > 100 µM (inactive)
Nc1ncnc2c1ncn2C1CC(O)C(CO)O1 (stereo unspecified) | > 100 µM (inactive)
COc1ccc2nc(-c3ccc(O)cc3)ccc2c1 | > 100 µM (inactive)
CC1OC(O)C(O)C(O)C1O (stereo unspecified) | > 100 µM (inactive)
CCCCCCC(N)(CCCCCC)C(=O)Nn1c(C)ccc1C | > 100 µM (inactive)
COC1=CC(=O)[C@H]2[C@H](C)C(c3ccccc3)[C@@]2(C)C1=O (stereo partly specified) | > 100 µM (inactive)
O=[N+]([O-])C(=C(Nc1cccc2cccnc12)Nc1cccc2cccnc12)C(Cl)=C(Cl)Cl | > 100 µM (inactive)

---

# Test system: M19-MEL
# assay-comment: NCI tumour cell line growth inhibition, 48 h
Calls of active or inactive are those of the source. Rule as the data show it: active = GI50 up to about 1.1 µM and inactive = higher.
Consider the following compounds and their measured GI50 readings.

compound | GI50
O=C1/C(=C/c2cc(O)c(O)c(O)c2)Oc2cc(O)cc(OC3OC(CO)C(O)C(O)C3O)c21 (stereo unspecified) | 18 µM (inactive)
CCOC(=O)C1=C(C)CC2C(=O)OC(=O)C2C1(C)C (stereo unspecified) | > 100 µM (inactive)
Cn1ccnc1CCc1ccc(Cl)cc1Cl | > 100 µM (inactive)
CC(=O)OC1CCC2(C)C3CCC4(C)C(c5ccc(=O)oc5)CC5OC54C3CCC2(O)C1 (stereo unspecified) | 2.21 µM (inactive)
C/N=C(\N=c1/ss/c(=N\C)n1C)N(C)C.[O-][Cl+3]([O-])([O-])O | > 100 µM (inactive)
N#CC(/C(CCC(=O)Nc1ccc(Cl)cc1)=N/NC(=O)c1cc2ccccc2cc1O)c1ccccc1 (stereo unspecified) | 33.7 µM (inactive)
Cc1ccc2c(c1)CNc1ccc(C)cc1CN2 | > 100 µM (inactive)
C[n+]1cc(C(O)c2ccc3c(c2)OCO3)c2ccccc2c1 (stereo unspecified) | 40.6 µM (inactive)
COCCOCOC(C)(C)[C@H](CCOC(C)=O)O[Si](c1ccccc1)(c1ccccc1)C(C)(C)C | 13.1 µM (inactive)
CCOc1ccccc1NC(=O)C(=O)Cc1nc2ccccc2s1 | > 100 µM (inactive)
COC(=O)/C(=C/c1ccc(OC)cc1)C(C(=O)O)=C1CCCC1 | > 100 µM (inactive)

---

# System: RPMI-8226
# assay-comment: NCI tumour cell line growth inhibition, 48 h
The source made the active and inactive calls. No stated cut-off is given here; in the data, active = GI50 up to about 1.1 µM and inactive = higher.
measurement-type: GI50

molecule | result
COc1ccc(NC(=O)CC(=O)N2N=C(N3c4ccccc4Sc4ccccc43)CC2c2ccccc2)cc1 (centres undefined) | > 100 µM (inactive)
O=C(O)CCC(=O)Oc1ccc(O)c2c1CCCC2=O | 95.5 µM (inactive)
Fc1cccc(Cl)c1/C=N\N=C1c2ccccc2-c2ccccc21 | 33.9 µM (inactive)
CC1CC(C2=CC=CCS2)=Nc2ccccc2S1 (centres undefined) | 97.5 µM (inactive)
Cc1ccc(Nc2nc3c(s2)C(=O)c2ccccc2C3=O)c(C)c1 | 12.1 µM (inactive)
CN(C)CCCNC(=O)CNC(=O)c1cc(NC(=O)c2cc(NC(=O)c3cc(NC(=O)CCNC(=O)c4cc(NC(=O)c5cc(NC(=O)c6nccn6C)cn5C)cn4C)cn3C)cn2C)cn1C | > 100 µM (inactive)
CN(C)c1ccc(C=C2C(=O)N(c3ccccc3)N(c3ccccc3)C2=O)cc1 | 69 µM (inactive)
c1ccc(C2=NC3OC2c2ccccc23)cc1 (centres undefined) | > 10 µM (inactive)
CCOC(=O)[C@H]1C[C@@H](C(=O)c2ccccc2)N2N=C(c3ccc(Br)cc3)C=C[C@H]12 | > 100 µM (inactive)
COC(=O)C(CCCCN)NC(C)=O.Cc1ccc(C(=O)Nc2ccc(S(=O)(=O)O)c3cc(S(=O)(=O)O)cc(S(=O)(=O)O)c23)cc1NC(=O)c1cccc(NC(=O)Nc2cccc(C(=O)Nc3cc(C(=O)Nc4ccc(S(=O)(=O)O)c5cc(S(=O)(=O)O)cc(S(=O)(=O)O)c45)ccc3C)c2)c1 | > 50 µM (inactive)
CCOc1cc(C2SCC(=O)N2c2ccc(Oc3ccc(Cl)cc3)c(Cl)c2)ccc1O (centres undefined) | 14.7 µM (inactive)
N#CCCN(CCN(CCN(C(=O)Nc1ccccc1)c1ccccc1)C(=O)Nc1ccccc1)C(=O)Nc1ccccc1 | 6.47 µM (inactive)
Cc1cccc(C)c1NC(=O)/C(=N/NC(N)=S)C(C)C(=O)c1ccc(Cl)cc1 (centres undefined) | > 100 µM (inactive)
Cn1cc2c3ccccc3nc-2c2ccccc21 [ISOCRYPTOLEPINE] | 1.53 µM (inactive)
CC1(C)C2CCC1(CC(=O)O)C(Cl)C2 (centres undefined) | > 100 µM (inactive)
COc1ccccc1-c1nc(-c2ccccc2O)n[nH]1 | > 100 µM (inactive)
C=C1CCCC(C)(C)[C@H]1C/C=C1\CCOC1=O | 6.62 µM (inactive)
O=C(/C=C/c1cccs1)c1ccsc1 | 15.9 µM (inactive)
CSc1n[nH]c2c1c(C)nn2-c1ccccc1 | > 100 µM (inactive)

---

Consider the following compounds and their measured GI50 readings.
# Tested on: ACHN
# assay-comment: NCI tumour cell line growth inhibition, 48 h
Active and inactive are the calls of the source. Rule as the data show it: active = GI50 up to about 1.1 µM and inactive = higher.
measurement-type: GI50

compound | system-under-test | measurement-type | result
COc1ccc(OC)c(/C=N/N=C2\C(=O)Nc3c(Cl)cc(Cl)cc32)c1 | ACHN | GI50 | 52.4 µM (inactive)
Cc1cc2c(=O)c3ccccc3oc2c(C#N)c1C | ACHN | GI50 | > 100 µM (inactive)
CCC/N=C/c1cc(Cc2ccc(O)c(/C=N/CCC)c2)ccc1O | ACHN | GI50 | 20.7 µM (inactive)
O=S(=O)(c1ccccc1)c1ccc(/N=N/O)nc1 | ACHN | GI50 | > 100 µM (inactive)
COC(=O)/C(=C/c1ccc(OC)cc1)C(C(=O)O)=C1CCCC1 | ACHN | GI50 | > 100 µM (inactive)
O=c1cc(/N=N\c2ccc(Cl)c(Cl)c2)[nH]c(=O)[nH]1 | ACHN | GI50 | 1.62 µM (inactive)
CN(C)Cc1cc(C(=O)/C=C/c2ccc(Cl)cc2)cc(CN(C)C)c1O | ACHN | GI50 | 4.04 µM (inactive)
CCOC(=O)C(C)NC(=O)NC12CC3CC(CC(F)(C3)C1)C2 (centres undefined) | ACHN | GI50 | > 100 µM (inactive)
Nc1c(C(=O)O)nnc2cc(Cl)c(Cl)cc12 | ACHN | GI50 | > 100 µM (inactive)
COc1cc(OC)c(OC)cc1/C=C/c1ccccn1 | ACHN | GI50 | > 10 µM (inactive)
O=c1c(-c2c(-c3ccccc3)oc3ccc(Cl)cc3c2=O)c(-c2ccccc2)oc2ccc(Cl)cc12 | ACHN | GI50 | > 75.9 µM (inactive)
CC1=C(C(=O)CC(=O)C(=O)Nc2ccc(C)c(C)c2)Sc2ccccc2N1 | ACHN | GI50 | > 100 µM (inactive)
c1ccc(C2=NC3OC2c2ccccc23)cc1 (centres undefined) | ACHN | GI50 | > 10 µM (inactive)
Cc1nc2c3c(ccc2nc1O)C(=O)c1ccccc1C3=O | ACHN | GI50 | 24.4 µM (inactive)

---

# Test system: Hs-578T
# assay-comment: NCI tumour cell line growth inhibition, 48 h
Calls of active or inactive are those of the source. No stated cut-off is given here; in the data, active = GI50 up to about 1.1 µM and inactive = higher. *1 amine or outer side, *2 acyl side, *3 side chain or, on linkers, in order; H or OH if unused. Where a SMILES comes first, the peptide text is derived from it. Bridges are numbered along the chain shown (N, C = ends). Roman numbers before positions name the chains, in order. [ ]: non-standard residue; d: D form. Actinocin(9to1) = Cc1c2oc3c(C)ccc(C(=O)[*:1])c3nc-2c(C(=O)[*:2])c(N)c1=O; Hyp = O=C(O)[CH]1C[CH](O)CN1; NMeV = CN[CH](C(=O)O)C(C)C; Sar = CNCC(=O)O
Outcome codes: TRUE for active, FALSE for inactive

molecule | class-label
Cc1c2oc3c(C)ccc(C(=O)NC4C(=O)NC(C(C)C)C(=O)N5CC(O)CC5C(=O)N(C)CC(=O)N(C)C(C(C)C)C(=O)OC4C)c3nc-2c(C(=O)NC2C(=O)NC(C(C)C)C(=O)N3CC(O)CC3C(=O)N(C)CC(=O)N(C)C(C(C)C)C(=O)OC2C)c(N)c1=O (configuration not stated) (I: TV[Hyp][Sar][NMeV] / II: TV[Hyp][Sar][NMeV]; ester I:1-I:C, II:1-II:C; linker I:N-II:N via Actinocin(9to1); configuration not given here) | TRUE
O=c1cc(/N=N\c2ccc(Cl)c(Cl)c2)[nH]c(=O)[nH]1 | FALSE
CC(=O)OC1CC2(C)C(OC(C)=O)CC1C2(C)C (configuration not stated) | FALSE
Cn1cc2c3ccccc3nc-2c2ccccc21 [ISOCRYPTOLEPINE] | FALSE
CC(C)=CCC/C(C)=C\CC/C(C)=C/CO | FALSE
CC1=CC(=O)N(n2c(-c3ccccc3)n[nH]c2=O)C1=O | FALSE
CCOc1cc(C2SCC(=O)N2c2ccc(Oc3ccc(Cl)cc3)c(Cl)c2)ccc1O (configuration not stated) | FALSE

Every entry's value here was drawn from ChEMBL document CHEMBL1201862.
